B1: Calcium-binding protein 2, residues 155 to 219; numbered along this chain, Q9NPB3 (parent)
chain: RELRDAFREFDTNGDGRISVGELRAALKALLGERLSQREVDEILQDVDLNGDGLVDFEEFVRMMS

Variants of: B1
Protocol description: abundance fitness (aPCA) (normalised: wild type 0, dead -1); higher = more abundant; growth selection in yeast, the domain comes from the species named
Recorded conditions: Homo sapiens
Assay readout: abundance fitness
Returns: the value as a bare number; no unit string appended.

Name the recorded abundance fitness of the item `F10R` in your answer.
-0.1

Name the recorded abundance fitness of the item `S19H` in your answer.
-0.459

Name the recorded abundance fitness of the item `D56I` in your answer.
-0.12

Name the recorded abundance fitness of the item `L54E` in your answer.
-0.07

Name the recorded abundance fitness of the item `M63E` in your answer.
-0.721

Name the recorded abundance fitness of the item `L54Y` in your answer.
-0.177

Name the recorded abundance fitness of the item `F10E` in your answer.
-0.445

Name the recorded abundance fitness of the item `L23C` in your answer.
-0.139

Name the recorded abundance fitness of the item `L44V` in your answer.
0

Name the recorded abundance fitness of the item `D48H` in your answer.
0.108

Name the recorded abundance fitness of the item `E33M` in your answer.
-0.049

Name the recorded abundance fitness of the item `E2K` in your answer.
-0.158

Name the recorded abundance fitness of the item `I18D` in your answer.
-0.965

Name the recorded abundance fitness of the item `K28G` in your answer.
-0.077

Name the recorded abundance fitness of the item `D41T` in your answer.
-0.104

Name the recorded abundance fitness of the item `I18F` in your answer.
-0.747

Name the recorded abundance fitness of the item `L54F` in your answer.
-0.212

Name the recorded abundance fitness of the item `Q45H` in your answer.
-0.013

Name the recorded abundance fitness of the item `S19T` in your answer.
0.227

Name the recorded abundance fitness of the item `E2S` in your answer.
-0.355

Name the recorded abundance fitness of the item `V61I` in your answer.
-0.149

Name the recorded abundance fitness of the item `M64H` in your answer.
0.098

Name the recorded abundance fitness of the item `S36Y` in your answer.
-0.263

Name the recorded abundance fitness of the item `A6V` in your answer.
0.026

Name the recorded abundance fitness of the item `R17W` in your answer.
-0.159

Name the recorded abundance fitness of the item `I18C` in your answer.
-0.311

Name the recorded abundance fitness of the item `E33A` in your answer.
0.002

Name the recorded abundance fitness of the item `D11K` in your answer.
-1.16

Name the recorded abundance fitness of the item `L30P` in your answer.
-0.158

Name the recorded abundance fitness of the item `F7E` in your answer.
-0.841

Name the recorded abundance fitness of the item `G32E` in your answer.
-0.522

Name the recorded abundance fitness of the item `N13Y` in your answer.
-1.12

Name the recorded abundance fitness of the item `L27I` in your answer.
0.102

Name the recorded abundance fitness of the item `E59P` in your answer.
-0.1

Name the recorded abundance fitness of the item `G53A` in your answer.
-0.115

Name the recorded abundance fitness of the item `L54G` in your answer.
0.099

Name the recorded abundance fitness of the item `A6N` in your answer.
0.042

Data origin, for the record: the Human Domainome abundance scans (Beltran et al. 2025)
